- protocol details: Compound was tested for the partition coefficient between octanol and water.
- Assay type: physicochemical
Hi there, I'd appreciate the recorded Partition coefficient for every entry that follows.
Give the figure by itself; no unit, no explanation.

Which Partition coefficient value belongs to "O=[N+]([O-])c1nccn1C[C@@H](O)C/C=C/I" ? 2.52

Which Partition coefficient value belongs to "COC[C@H](O)Cn1cc(Br)nc1[N+](=O)[O-]" ? 2.87

Which Partition coefficient value belongs to "COC[C@H](O)Cn1ccnc1[N+](=O)[O-]" ? 0.41

Which Partition coefficient value belongs to "O=[N+]([O-])c1nccn1C[C@@H](O)CF" ? 0.4
